# Target: recombinant human XT-I (Homo sapiens)
# Procedure text: NP library inhibitor screening, UPLC/ESI-MS/MS XT-I assay
# Format: biochemical
# Stated conditions: Table S1; 50 μM inhibitor; relative to negative control containing DMSO; technical duplicates
Where a name gives a salt, the structure may show the parent alone.
Entries and their remaining activity at 50 µM values follow.

Compound	Target	remaining activity at 50 µM [%]
C[C@@H]1CC[C@H]2[C@@H](C)C(=O)O[C@@H]3O[C@@]4(C)CC[C@@H]1[C@]32OO4	recombinant human XT-I (Homo sapiens)	93
CCn1cc(C(=O)O)c(=O)c2cc(F)c(N3CCN(C)CC3)cc21 [Compound 21, Pefloxacin Mesylate]	recombinant human XT-I (Homo sapiens)	108
CO/N=C(\C(=O)N[C@@H]1C(=O)N2C(C(=O)OCOC(=O)C(C)(C)C)=C(/C=C\c3scnc3C)CS[C@H]12)c1csc(N)n1	recombinant human XT-I (Homo sapiens)	104
Cc1cc(NS(=O)(=O)c2ccc(N)cc2)no1	recombinant human XT-I (Homo sapiens)	121
CO[C@H]1/C=C/O[C@@]2(C)Oc3c(C)c(O)c4c(O)c(c(/C=N/N5CCN(C6CCCC6)CC5)c(O)c4c3C2=O)NC(=O)/C(C)=C\C=C\[C@H](C)[C@H](O)[C@@H](C)[C@@H](O)[C@@H](C)[C@H](OC(C)=O)[C@@H]1C	recombinant human XT-I (Homo sapiens)	50
Cc1ncc([N+](=O)[O-])n1CCO	recombinant human XT-I (Homo sapiens)	109

###

# Target: recombinant human XT-I (Homo sapiens)
# Procedure text: NP library inhibitor screening, UPLC/ESI-MS/MS XT-I assay
# Format: biochemical
# Stated conditions: Table S1; 50 μM inhibitor; relative to negative control containing DMSO; technical duplicates
Note to self: use Met only for remaining activity at 50 µM readings below 90%; a reading exactly at 90% still gets Not met.

Compound	Assigned category
COc1cnc(NS(=O)(=O)c2ccc(N)cc2)nc1	Not met
CC1=C(/C=C/C(C)=C/C=C/C(C)=C/C(=O)O)C(C)(C)CCC1	Met
C[C@]12CCC(=O)C=C1CC[C@@H]1[C@@H]2[C@@H](O)C[C@@]2(C)[C@H]1CC[C@]2(O)C(=O)CO [Compound 62, Hydrocortisone]	Not met
COc1c(N2CCNC(C)C2)c(F)cc2c(=O)c(C(=O)O)cn(C3CC3)c12 (centres unmarked)	Not met
O=c1c(-c2ccc(O)cc2)coc2cc(O)cc(O)c12	Not met
Oc1ccc(/C=C/c2cc(O)cc(O)c2)cc1	Met
COc1ccc2[nH]cc(CCNC(C)=O)c2c1	Not met

###

# Target: XT-I (Homo sapiens, UniProt Q86Y38)
# Sequence (Q86Y38 260-959 limits assumed): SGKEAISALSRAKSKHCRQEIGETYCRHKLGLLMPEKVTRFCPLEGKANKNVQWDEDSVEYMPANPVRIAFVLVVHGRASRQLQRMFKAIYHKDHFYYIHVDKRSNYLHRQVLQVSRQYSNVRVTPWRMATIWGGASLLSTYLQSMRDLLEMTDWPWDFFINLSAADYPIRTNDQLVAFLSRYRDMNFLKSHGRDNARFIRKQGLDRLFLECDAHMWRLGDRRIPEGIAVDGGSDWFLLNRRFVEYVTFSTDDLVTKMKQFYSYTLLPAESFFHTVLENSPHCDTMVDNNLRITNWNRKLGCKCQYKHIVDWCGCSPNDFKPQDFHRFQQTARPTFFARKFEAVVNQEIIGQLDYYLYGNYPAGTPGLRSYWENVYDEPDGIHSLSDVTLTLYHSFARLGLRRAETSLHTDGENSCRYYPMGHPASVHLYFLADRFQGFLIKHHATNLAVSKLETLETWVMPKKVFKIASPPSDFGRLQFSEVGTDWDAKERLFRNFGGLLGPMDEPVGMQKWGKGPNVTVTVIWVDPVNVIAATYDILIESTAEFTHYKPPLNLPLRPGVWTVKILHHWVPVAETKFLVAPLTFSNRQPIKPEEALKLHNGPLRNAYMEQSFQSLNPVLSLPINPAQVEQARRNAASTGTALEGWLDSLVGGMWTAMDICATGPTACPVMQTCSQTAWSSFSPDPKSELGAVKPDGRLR
# Procedure text: IC50 determination, UPLC/ESI-MS/MS XT-I assay
# Format: biochemical

Molecule	Target	IC50
CC1=C(O)C(=O)C=C2C1=CC=C1[C@@]2(C)CC[C@@]2(C)[C@@H]3C[C@](C)(C(=O)O)CC[C@]3(C)CC[C@]12C [Compound 68, Celastrol]	XT-I (Homo sapiens, UniProt Q86Y38)	11 µM

###

# Target: recombinant human XT-I (Homo sapiens)
# Procedure text: NP library inhibitor screening, UPLC/ESI-MS/MS XT-I assay
# Assay type: biochemical
# Stated conditions: Table S1; 50 μM inhibitor; relative to negative control containing DMSO; technical duplicates

Structure smiles string	Target	remaining activity at 50 µM
CC(=O)[C@H]1CC[C@H]2[C@@H]3CCC4=CC(=O)CC[C@]4(C)[C@H]3CC[C@]12C	recombinant human XT-I (Homo sapiens)	113%
CC(=O)NC[C@H]1CN(c2ccc(N3CCOCC3)c(F)c2)C(=O)O1	recombinant human XT-I (Homo sapiens)	103%
CC[C@H]1OC(=O)[C@H](C)[C@@H](O[C@H]2C[C@@](C)(OC)[C@@H](O)[C@H](C)O2)[C@H](C)[C@@H](O[C@@H]2O[C@H](C)C[C@H](N(C)C)[C@H]2O)[C@](C)(O)C[C@@H](C)CN(C)[C@H](C)[C@@H](O)[C@]1(C)O	recombinant human XT-I (Homo sapiens)	109%
C/C(=C\c1csc(C)n1)[C@@H]1C[C@@H]2O[C@@H]2CCC[C@H](C)[C@H](O)[C@@H](C)C(=O)C(C)(C)[C@@H](O)CC(=O)O1	recombinant human XT-I (Homo sapiens)	119%
COc1cc(/C=C/C(=O)CC(=O)/C=C/c2ccc(O)c(OC)c2)ccc1O	recombinant human XT-I (Homo sapiens)	43%
O=C(N[C@H](CO)[C@H](O)c1ccc([N+](=O)[O-])cc1)C(Cl)Cl	recombinant human XT-I (Homo sapiens)	87%

###

# Target: recombinant human XT-I (Homo sapiens)
# Procedure text: NP library inhibitor screening, UPLC/ESI-MS/MS XT-I assay
# Format: biochemical
# Stated conditions: Table S1; 50 μM inhibitor; relative to negative control containing DMSO; technical duplicates

Compound	Endpoint unit	remaining activity at 50 µM
CC1=C(/C=C/C(C)=C/C=C/C(C)=C\C(=O)O)C(C)(C)CCC1	%	86
O=[N+]([O-])c1cn2c(n1)OC[C@@H](OCc1ccc(OC(F)(F)F)cc1)C2	%	75
CC(=O)O[C@H]1C(=O)[C@@]2(C)[C@H]([C@H](OC(=O)c3ccccc3)[C@]3(O)C[C@H](OC(=O)[C@H](O)[C@@H](NC(=O)c4ccccc4)c4ccccc4)C(C)=C1C3(C)C)[C@]1(OC(C)=O)CO[C@@H]1C[C@@H]2O	%	79
COc1cc([C@@H]2c3cc4c(cc3[C@@H](O[C@@H]3O[C@@H]5CO[C@@H](C)O[C@H]5[C@H](O)[C@H]3O)[C@H]3COC(=O)[C@H]23)OCO4)cc(OC)c1O [Compound 13, Etoposide]	%	114
C[C@]12CC[C@@H]3c4ccc(O)cc4CC[C@H]3[C@@H]1CCC2=O	%	120
CC1=CC(=O)c2ccccc2C1=O	%	106
Oc1c(Cl)cc(Cl)c2cccnc12	%	121

###

# Target: recombinant human XT-I (Homo sapiens, UniProt Q86Y38)
# Procedure text: NP library inhibitor screening, UPLC/ESI-MS/MS XT-I assay
# Format: biochemical
# Stated conditions: Table S1; 50 μM inhibitor; relative to negative control containing DMSO; technical duplicates
Entries and their XT-I Activity [%] values follow.
Measured property: XT-I Activity [%] (%)

Compound	Endpoint result
CO[C@H]1/C=C\C=C(/C)C(=O)NC2=CC(=O)C(NCCN(C)C)=C(C[C@@H](C)C[C@H](OC)[C@H](O)[C@@H](C)/C=C(\C)[C@@H]1OC(N)=O)C2=O.Cl [Compound 12, Alvespimycin (17-DMAG) HCl]	120
Cl.Nc1ncnc2nc[nH]c12 [Compound 93, Adenine HCl]	146
C[C@@H]1C[C@H]2[C@@H]3CCC4=CC(=O)C=C[C@]4(C)[C@@]3(F)[C@@H](O)C[C@]2(C)[C@@]1(O)C(=O)CO	106
